All values here come from paper PMC9014857.

# reported EC50; entries follow
system: EEEV V105; assay: microbe, parasite or virus in culture; assay type: cell-based, eastern equine encephalitis virus; settings: Eastern equine encephalitis virus, Vero 76, 48 h, read-out: EEEV V105 CPE EC50
The figure you give is taken to be in nM; do not add the unit.

Prompt: Quick one: give measured EC50 for COc1ccc(N2C(=O)c3cc([N+](=O)[O-])ccc3N=C3C2N(C)CCN3C)cc1F (centres unmarked) [7b]
Response: 27

Prompt: Quick one: give measured EC50 for CN1CCN(C)C2C1=Nc1ccc([N+](=O)[O-])cc1C(=O)N2c1ccccc1 (centres unmarked) [7e]
Response: 59

* * *

system: VEEV TC83; assay: microbe, parasite or virus in culture; format: cell-based; conditions: Venezuelan equine encephalitis virus, read-out: CPE EC50 (VEEV TC83)
assay-metric: EC50 (nM)
The figure you give is taken to be in nM; do not add the unit.

Prompt: # return EC50 of COc1ccc(N2C(=O)c3cc([N+](=O)[O-])ccc3N=C3C2N(C)CCN3C)cc1 (stereo not shown) (system: VEEV TC83)
Response: 41
